Assign viability, T/C to each entry below.
# System: 883617-216-R-J1-PDC complex spheroids, growth, % test/control;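 also: exposure lasted 7 days after dosing on day 3 of spheroid growth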
# assay name: Anticancer human tumor 883617-216-R-J1-PDC patient-derived bladder carcinoma cell line growth inhibition [AhR]
# experimental conditions: second compound 0.1 µM; first compound 0.01 µM; active compounds read low
Answers are plain numbers, in %.

| compound | value unit | viability, T/C |
| --- | --- | --- |
| Cn1ncnc1C1c2n[nH]c(=O)c3cc(F)cc(c23)NC1c1ccc(F)cc1 (configuration not stated) + Cc1ccccc1N=Nc1ccc(NC(=O)c2ccnn2C)c(C)c1 | % | 88.7 |
| CC[C@@]1(O)C(=O)OCc2c1cc1n(c2=O)Cc2cc3c(CN(C)C)c(O)ccc3nc2-1 + Cc1ccccc1N=Nc1ccc(NC(=O)c2ccnn2C)c(C)c1 | % | 80.3 |
| Cn1ncnc1C1c2n[nH]c(=O)c3cc(F)cc(c23)NC1c1ccc(F)cc1 (configuration not stated) + CC(CO)NC(=O)c1cc(-c2ccc(Cl)cc2)nn(-c2cnn(C)c2)c1=O | % | 57.7 |

For each of the compounds below, state viability, T/C.
1. CC[C@@]1(O)C(=O)OCc2c1cc1n(c2=O)Cc2cc3c(CN(C)C)c(O)ccc3nc2-1 + CC(CO)NC(=O)c1cc(-c2ccc(Cl)cc2)nn(-c2cnn(C)c2)c1=O
2. Cn1ncnc1C1c2n[nH]c(=O)c3cc(F)cc(c23)NC1c1ccc(F)cc1 (configuration not stated) + Cc1cncc(-c2nc(NCCc3c[nH]c4ccccc34)c3ncn(C(C)C)c3n2)c1
3. Nc1ncn(C2CC(O)C(CO)O2)c(=O)n1 (configuration not stated) + CC(CO)NC(=O)c1cc(-c2ccc(Cl)cc2)nn(-c2cnn(C)c2)c1=O
4. Nc1ncn(C2CC(O)C(CO)O2)c(=O)n1 (configuration not stated) + Cc1cncc(-c2nc(NCCc3c[nH]c4ccccc34)c3ncn(C(C)C)c3n2)c1
5. CC1COCCN1c1cc(-c2ccnn2C)c2ccnc(-c3ccn[nH]3)c2n1 (configuration not stated) + Cc1cncc(-c2nc(NCCc3c[nH]c4ccccc34)c3ncn(C(C)C)c3n2)c1
6. CC[C@@]1(O)C(=O)OCc2c1cc1n(c2=O)Cc2cc3c(CN(C)C)c(O)ccc3nc2-1 + Cc1cncc(-c2nc(NCCc3c[nH]c4ccccc34)c3ncn(C(C)C)c3n2)c1

[52.4, 80.6, 79.9, 76.9, 92.8, 71]

For each of the compounds below, state viability, T/C.
1. Nc1ncn(C2CC(O)C(CO)O2)c(=O)n1 (configuration not stated) + Cc1ccccc1N=Nc1ccc(NC(=O)c2ccnn2C)c(C)c1
2. CC1COCCN1c1cc(-c2ccnn2C)c2ccnc(-c3ccn[nH]3)c2n1 (configuration not stated) + Cc1ccccc1N=Nc1ccc(NC(=O)c2ccnn2C)c(C)c1
3. CC1COCCN1c1cc(-c2ccnn2C)c2ccnc(-c3ccn[nH]3)c2n1 (configuration not stated) + CC(CO)NC(=O)c1cc(-c2ccc(Cl)cc2)nn(-c2cnn(C)c2)c1=O

94.7
96.6
80.7
